Biological target: T1, Native human IL-18 (human, UniProt Q14116 37-193)
T1 sequence: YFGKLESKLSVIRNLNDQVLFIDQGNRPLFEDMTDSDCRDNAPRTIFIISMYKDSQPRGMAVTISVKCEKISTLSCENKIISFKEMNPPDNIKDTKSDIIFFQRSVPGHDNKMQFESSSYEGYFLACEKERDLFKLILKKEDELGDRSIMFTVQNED
Experiment: cell-based or functional assay
endpoint.label: IC50, inhibition of IFN-γ release, PBMC, Native IL-18 (LPS/IL-12) (pM)

binder	meas.value
MOR9464_N30T (antibody, human IgG1, lambda, L234A L235A, V domains shown) VH: EVQLVQSGAEVKKPGSSVKVSCKASGGTFTSYAISWVRQAPGQGLEWMGNIIPMTGQTYYAQKFQGRVTITADESTSTAYMELSSLRSEDTAVYYCARAAYHPLVFDNWGQGTLVTVSS VL: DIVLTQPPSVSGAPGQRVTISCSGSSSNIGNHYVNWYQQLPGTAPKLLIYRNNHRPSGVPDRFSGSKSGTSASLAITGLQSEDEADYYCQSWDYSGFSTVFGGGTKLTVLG	190
MOR10222_E1Q_N30S_M54I (antibody, human IgG1, lambda, L234A L235A, V domains shown) VH: QVQLVQSGAEVKKPGSSVKVSCKASGGTFSSYAISWVRQAPGQGLEWMGNIIPITGQTYYAQKFQGRVTITADESTSTAYMELSSLRSEDTAVYYCARAAYHPLVFDNWGQGTLVTVSS VL: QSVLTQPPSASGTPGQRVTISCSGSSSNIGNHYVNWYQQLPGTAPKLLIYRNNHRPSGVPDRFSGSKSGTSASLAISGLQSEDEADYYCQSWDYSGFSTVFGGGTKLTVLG	50
MOR9464_N30Y (antibody, human IgG1, lambda, L234A L235A, V domains shown) VH: EVQLVQSGAEVKKPGSSVKVSCKASGGTFYSYAISWVRQAPGQGLEWMGNIIPMTGQTYYAQKFQGRVTITADESTSTAYMELSSLRSEDTAVYYCARAAYHPLVFDNWGQGTLVTVSS VL: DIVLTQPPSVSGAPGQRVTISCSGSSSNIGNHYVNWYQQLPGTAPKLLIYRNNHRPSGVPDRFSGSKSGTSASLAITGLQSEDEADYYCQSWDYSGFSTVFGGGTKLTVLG	30
MOR9464_N30Q (antibody, human IgG1, lambda, L234A L235A, V domains shown) VH: EVQLVQSGAEVKKPGSSVKVSCKASGGTFQSYAISWVRQAPGQGLEWMGNIIPMTGQTYYAQKFQGRVTITADESTSTAYMELSSLRSEDTAVYYCARAAYHPLVFDNWGQGTLVTVSS VL: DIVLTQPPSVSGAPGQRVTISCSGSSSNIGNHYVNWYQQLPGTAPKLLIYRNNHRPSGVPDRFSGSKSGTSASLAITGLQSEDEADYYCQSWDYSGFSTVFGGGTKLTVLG	70
MOR10222_E1Q_N30S (antibody, human IgG1, lambda, L234A L235A, V domains shown) VH: QVQLVQSGAEVKKPGSSVKVSCKASGGTFSSYAISWVRQAPGQGLEWMGNIIPMTGQTYYAQKFQGRVTITADESTSTAYMELSSLRSEDTAVYYCARAAYHPLVFDNWGQGTLVTVSS VL: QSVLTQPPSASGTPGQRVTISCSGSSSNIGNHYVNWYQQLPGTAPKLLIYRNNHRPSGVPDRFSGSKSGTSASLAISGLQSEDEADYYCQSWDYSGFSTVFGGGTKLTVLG	50
MOR9464_N30E (antibody, human IgG1, lambda, L234A L235A, V domains shown) VH: EVQLVQSGAEVKKPGSSVKVSCKASGGTFESYAISWVRQAPGQGLEWMGNIIPMTGQTYYAQKFQGRVTITADESTSTAYMELSSLRSEDTAVYYCARAAYHPLVFDNWGQGTLVTVSS VL: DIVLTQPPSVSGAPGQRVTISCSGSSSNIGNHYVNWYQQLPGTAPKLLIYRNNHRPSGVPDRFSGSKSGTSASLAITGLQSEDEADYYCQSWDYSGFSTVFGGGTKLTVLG	130
MOR9464_N30H (antibody, human IgG1, lambda, L234A L235A, V domains shown) VH: EVQLVQSGAEVKKPGSSVKVSCKASGGTFHSYAISWVRQAPGQGLEWMGNIIPMTGQTYYAQKFQGRVTITADESTSTAYMELSSLRSEDTAVYYCARAAYHPLVFDNWGQGTLVTVSS VL: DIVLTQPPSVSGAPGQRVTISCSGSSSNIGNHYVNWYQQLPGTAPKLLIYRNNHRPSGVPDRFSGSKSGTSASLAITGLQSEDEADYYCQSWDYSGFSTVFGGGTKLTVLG	100
MOR9464_N30G (antibody, human IgG1, lambda, L234A L235A, V domains shown) VH: EVQLVQSGAEVKKPGSSVKVSCKASGGTFGSYAISWVRQAPGQGLEWMGNIIPMTGQTYYAQKFQGRVTITADESTSTAYMELSSLRSEDTAVYYCARAAYHPLVFDNWGQGTLVTVSS VL: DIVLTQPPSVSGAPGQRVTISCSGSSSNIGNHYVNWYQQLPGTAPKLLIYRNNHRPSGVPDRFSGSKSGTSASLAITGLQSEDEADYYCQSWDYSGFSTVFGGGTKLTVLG	110
MOR9464_N30K (antibody, human IgG1, lambda, L234A L235A, V domains shown, also called MOR09464_N30K) VH: EVQLVQSGAEVKKPGSSVKVSCKASGGTFKSYAISWVRQAPGQGLEWMGNIIPMTGQTYYAQKFQGRVTITADESTSTAYMELSSLRSEDTAVYYCARAAYHPLVFDNWGQGTLVTVSS VL: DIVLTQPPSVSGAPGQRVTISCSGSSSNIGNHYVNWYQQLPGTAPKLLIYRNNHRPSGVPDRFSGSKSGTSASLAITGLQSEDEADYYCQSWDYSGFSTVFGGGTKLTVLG	200

Attribution: patent US20140112915A1
